Each recorded value in this set is attributed to paper PMC9610647.

Molecular target: electric eel AChE (Electrophorus electricus, UniProt O42275)
Construct: purchased Sigma-Aldrich
Sequence (O42275 24-633): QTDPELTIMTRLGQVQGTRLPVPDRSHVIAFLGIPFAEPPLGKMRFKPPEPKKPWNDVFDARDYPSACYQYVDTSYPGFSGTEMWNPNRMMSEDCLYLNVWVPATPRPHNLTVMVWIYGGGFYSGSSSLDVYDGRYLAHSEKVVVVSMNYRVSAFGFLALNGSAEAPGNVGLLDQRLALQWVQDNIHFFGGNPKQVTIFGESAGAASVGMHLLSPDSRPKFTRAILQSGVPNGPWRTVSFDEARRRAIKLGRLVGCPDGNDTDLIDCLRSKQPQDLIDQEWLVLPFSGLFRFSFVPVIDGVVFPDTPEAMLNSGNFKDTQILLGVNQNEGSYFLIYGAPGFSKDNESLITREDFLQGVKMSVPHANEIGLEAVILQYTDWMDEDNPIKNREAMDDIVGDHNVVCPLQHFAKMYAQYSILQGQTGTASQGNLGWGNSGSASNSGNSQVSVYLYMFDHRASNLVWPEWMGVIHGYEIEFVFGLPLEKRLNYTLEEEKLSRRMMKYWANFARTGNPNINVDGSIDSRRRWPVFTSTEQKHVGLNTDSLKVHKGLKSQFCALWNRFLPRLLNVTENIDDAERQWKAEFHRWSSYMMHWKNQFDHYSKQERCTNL
Assay: Acetylcholinesterase (AChE) inhibition assay, Ellman method
Type: biochemical
Details: read-out: Acetylcholinesterase inhibitory activity at 500 µg/mL
Please use yes (1) whenever inhibition at 500 µg/mL is not below 80%, and no (0) whenever it is.

[
  {
    "compound": "C=C(C)C1CC=C(C)C(O)C1 (stereo not drawn) [trans-Carveol]",
    "group": "no (0)"
  }
]

QUERY: Please tell me: is the compound C=C1CC[C@H]2O[C@]2(C)CC[C@@H]2[C@@H]1CC2(C)C [Caryophyllene Oxide] at or over 80% in terms of inhibition at 500 µg/mL?
RESULT: no (0)

QUERY: hey, is inhibition at 500 µg/mL for this one >= 80%? C=C(C)C1CC=C(C)CC1 (stereo not drawn)
RESULT: yes (1)

QUERY: Kindly determine if inhibition at 500 µg/mL recorded for C=C1CCC2CC1C2(C)C (stereo not drawn) is above or exactly 80%.
RESULT: yes (1)

QUERY: Record CC1=CCCC(C)=CCC(C)(C)C=CC1 ; criterion: inhibition at 500 µg/mL no lower than 80%. Met?
RESULT: no (0)

---

This listing pairs molecules with measured inhibition at 100 µg/mL.
Biological target: electric eel AChE (Electrophorus electricus, UniProt O42275)
Construct: purchased Sigma-Aldrich
Test: Acetylcholinesterase (AChE) inhibition assay, Ellman method
Type: biochemical
Conditions: read-out: Acetylcholinesterase inhibitory activity at 100 µg/mL
Provide only the numeric value, understood in %.

[
  {
    "molecule": "C=C1CCC2CC1C2(C)C (stereo not drawn) [β-Pinene]",
    "quantity": "inhibition at 100 µg/mL",
    "measurementUnits": "%",
    "observedValue": 58.9
  }
]

QUERY: Reported inhibition at 100 µg/mL for C=C(C)C1CC=C(C)CC1 (stereo not drawn) [Limonene] : what is it?
RESULT: 67.7

QUERY: Any idea what its inhibition at 100 µg/mL is? The molecule is CC1=CCCC(C)=CCC(C)(C)C=CC1 [α-Humulene]
RESULT: 44.3

QUERY: Field request: inhibition at 100 µg/mL | item: C=C1CC[C@H]2O[C@]2(C)CC[C@@H]2[C@@H]1CC2(C)C [Caryophyllene Oxide]
RESULT: 16.9

QUERY: Bench note: what inhibition at 100 µg/mL did C=C(C)C1CC=C(C)C(O)C1 (stereo not drawn) [trans-Carveol] show?
RESULT: 55.3

QUERY: Which measured inhibition at 100 µg/mL value corresponds to C=C1CCC=C(C)CCC2C1CC2(C)C (stereo not drawn) [(E)-β-Caryophyllene] ?
RESULT: 52.9

---

Target: electric eel AChE (Electrophorus electricus)
Construct: purchased Sigma-Aldrich
Test: Acetylcholinesterase (AChE) inhibition assay, Ellman method
Assay type: biochemical
Settings: read-out: Acetylcholinesterase inhibitory activity at 4 µg/mL
quantity: inhibition at 4 µg/mL (%)
Supply the numeric figure in %, leaving out any unit text.

[
  {
    "molecule": "C=C(C)C1CC=C(C)CC1 (stereo not drawn) [Limonene]",
    "quantity": "inhibition at 4 µg/mL",
    "observedValue": 18.2
  },
  {
    "molecule": "C=C(C)C1CC=C(C)C(O)C1 (stereo not drawn) [trans-Carveol]",
    "quantity": "inhibition at 4 µg/mL",
    "observedValue": 1.19
  },
  {
    "molecule": "CC1=CCCC(C)=CCC(C)(C)C=CC1 [α-Humulene]",
    "quantity": "inhibition at 4 µg/mL",
    "observedValue": 19.4
  },
  {
    "molecule": "C=C1CCC2CC1C2(C)C (stereo not drawn) [β-Pinene]",
    "quantity": "inhibition at 4 µg/mL",
    "observedValue": 20.9
  },
  {
    "molecule": "C=C1CC[C@H]2O[C@]2(C)CC[C@@H]2[C@@H]1CC2(C)C [Caryophyllene Oxide]",
    "quantity": "inhibition at 4 µg/mL",
    "observedValue": -2.11
  }
]

Here is another molecule to look at.
QUERY: What measured inhibition at 4 µg/mL goes with C=C1CCC=C(C)CCC2C1CC2(C)C (stereo not drawn) [(E)-β-Caryophyllene] ?
RESULT: 6.09
